Test system: HT29
reported.conditions: 72 h, relative to DMSO; 10 µM
Structures can show the parent of a compound that is named as a salt.
assay.readout: Relative cell viability (%) (%)
Answers are plain numbers, in %.

Look over these answered cases.
Exam item: Sample `CC(C)(Oc1ccc(Cl)cc1)C(=O)O` — what was its Relative cell viability (%)?
Marked response: 90.303

Exam item: Sample O=C1CC[C@@]2(O)[C@H]3Cc4ccc(O)c5c4[C@@]2(CCN3CC2CC2)[C@H]1O5 [Naltrexone HCl] — what was its Relative cell viability (%)?
Marked response: 104.3

Exam item: Sample `Cc1cc(Nc2ncc(Cl)c(Nc3ccccc3S(=O)(=O)C(C)C)n2)c(OC(C)C)cc1C1CCNCC1` — what was its Relative cell viability (%)?
Marked response: 0

Exam item: Sample `O=C(NC[C@H]1CN(c2ccc(N3CCOCC3=O)cc2)C(=O)O1)c1ccc(Cl)s1` — what was its Relative cell viability (%)?
Marked response: 107.3

Exam item: Sample `CNC(=O)[C@@H](NC(=O)[C@H](CC(C)C)[C@H](O)C(=O)NO)C(C)(C)C` — what was its Relative cell viability (%)?
Marked response: 121.4

Exam item: Sample `Cc1ccc(-c2cc(C(F)(F)F)nn2-c2ccc(S(N)(=O)=O)cc2)cc1` — what was its Relative cell viability (%)?
Marked response: 69.63

Exam item: Sample CC(=O)O[C@]1(C(C)=O)CC[C@H]2[C@@H]3C[C@H](C)C4=CC(=O)C=C[C@]4(C)[C@@]3(F)[C@@H](O)C[C@@]21C [Fluorometholone Acetate] — what was its Relative cell viability (%)?
Marked response: 86.67

Exam item: Sample `NC(=O)[C@@H](CCC(F)(F)F)N(Cc1ccc(-c2ncon2)cc1F)S(=O)(=O)c1ccc(Cl)cc1` — what was its Relative cell viability (%)?
Marked response: 74.3

Exam item: Sample `CN1CC[C@H](c2c(O)cc(O)c3c(=O)cc(-c4ccccc4Cl)oc23)[C@H](O)C1` — what was its Relative cell viability (%)?
Marked response: 8.879

Exam item: Sample C[C@@H](NCCCc1cccc(C(F)(F)F)c1)c1cccc2ccccc12 [Cinacalcet HCl] — what was its Relative cell viability (%)?
Marked response: 2.648

Items follow; give Relative cell viability (%) for each.
1. COc1ccc2c(c1)c(CC(=O)OCC(=O)O)c(C)n2C(=O)c1ccc(Cl)cc1
2. CCCCNc1cc(C(=O)O)cc(S(N)(=O)=O)c1Oc1ccccc1 [Bumetanide]
3. CCCc1cc(=O)[nH]c(=S)[nH]1
4. CCC(=O)O[C@]1(C(=O)SCF)[C@H](C)C[C@H]2[C@@H]3C[C@H](F)C4=CC(=O)C=C[C@]4(C)[C@@]3(F)[C@@H](O)C[C@@]21C [Fluticasone propionate]
5. O=c1[nH]c(=O)n([C@H]2C[C@H](O)[C@@H](CO)O2)cc1I

Marked response:
[81.07, 61.84, 201.3, 173.6, 86.86]
